Cited source for all entries: PubChem BioAssay (NCI)

# System: 786-0 renal
# Assay Overview: NCI-60 one-dose screen, 48 h
# Assay Setup: 10 µM unless noted
Compounds without any hit were thinned out: in the full panel of roughly 83,000, 20% have a hit. Activity calls are given as the source filed them. How the source made its calls: active means growth percent below 10; inactive means the rest.
Please reply with one of these outcomes: yes = active, no = inactive

CC(C)C(NC(=O)C1(NC(=O)OCc2ccccc2)CCCC1)C(=O)O (stereo unspecified) = no

# outcome recorded in this test, key = O=C(O)C1CCC(=O)N1C(=O)OCc1ccccc1 (stereo unspecified) no

# outcome recorded in this test, key = COc1cc(/C=C/C(=O)N2CCN(C(=O)c3cc(OC)c(OC)c(OC)c3)CC2)ccc1OCCCN1C(=O)c2cccc3cccc(c23)C1=O no

# outcome recorded in this test, key = Cc1ccc(-n2c(-c3ccccc3)c(-c3ccccc3)c3c(SCC(=O)n4[nH]c(N)cc4=O)ncnc32)cc1 no

# outcome recorded in this test, key = CCN(CC)CCCC(C)Nc1c2ccc(Cl)cc2nc2ccc(O)cc12 (stereo unspecified) no

# outcome recorded in this test, key = COc1cc(-c2nc(N3CCN(C)CC3)c3ccccc3n2)cc(OC)c1OC no

# outcome recorded in this test, key = CCCCCCCCCCCC(c1ccccc1)[N+](C)(C)C (stereo unspecified) no

# outcome recorded in this test, key = COc1cccc(Nc2nccc(Nc3ccc4[nH]ncc4c3)n2)c1 yes

----------
# Test system: PC-3 prostate
# Assay Overview: NCI-60 one-dose screen, 48 h (100 = growth as untreated, 0 = no growth, -100 = all killed)
# Assay Setup: 10 µM unless noted
Compounds without any hit were thinned out: in the full panel of roughly 83,000, 20% have a hit.
In this section, each of the molecules is paired with its reported growth.
Reply with just the number (in %).

Guide cases for growth, answers given:
COc1ccc2cc(-c3cc(OC)c(OC)c(OC)c3)c(=O)oc2c1 = 69.2
N#CC1=C(NC=O)Oc2c(ccc3ccccc23)C1c1ccccc1 (stereo not drawn) = 18.3

Could you now consider this next molecule?
Lab note: need growth with PC-3 prostate for entry O=C(Nc1ccc(Cl)cc1)Nc1ccc(Cl)c(C(F)(F)F)c1 , please look it up. -8.98

----------
# Test system: BT-549 breast
# Assay Overview: NCI-60 one-dose screen, 48 h (100 = growth as untreated, 0 = no growth, -100 = all killed)
# Assay Setup: 10 µM unless noted
About 83,000 compounds went through this panel and 20% of them were active in at least one assay; those are over-represented in the sample as a whole. Active and inactive are the calls of the source. Rule for the calls: active = growth percent below 10; inactive = the rest.
In this section, each of the compounds is paired with its reported growth.

Guide cases for growth, answers given:
COc1cc(CCC[P+](c2ccccc2)(c2ccccc2)c2ccccc2)cc2c1OCO2 = 23.3% (inactive)
COc1ccc(C(=NN=C(N)N)c2ccc(OC)cc2)cc1 = 30.6% (inactive)

Could you now consider this next compound?
Requested field: growth. Item: CC1=C([Se]CC(OC(=O)CC[Se]c2ccccc2)C(=O)NCCCCCC(=O)OCc2ccccc2)C(=O)c2ccccc2C1=O (stereo unspecified) 39.9% (inactive)

----------
In this section, each of the molecules is paired with its reported growth.
# Test system: COLO 205 colon
# Assay Overview: NCI-60 one-dose screen, 48 h (100 = growth as untreated, 0 = no growth, -100 = all killed)
# Assay Setup: 10 µM unless noted
About 83,000 compounds went through this panel and 20% of them were active in at least one assay; those are over-represented in the sample as a whole. Active and inactive are the calls of the source. Rule for the calls: active = growth percent below 10; inactive = the rest.

COc1cccc(-c2nc3sccn3c2-c2ccnc(NCCNS(=O)(=O)c3cccc(F)c3)c2)c1 = 25.8% (inactive)
C[C@H](NC(=O)[C@@H]1CSSC[C@@H](NC(=O)c2nc3ccccc3cc2O)C(=O)NCC(=O)N1C)c1ccccc1 = -63.7% (active)
C=C(C)[C@@H]1CC[C@]2(C)[C@H](CC=C3[C@@H]4CC(C)(C)CC[C@]4(C(N)=O)CC[C@]32C)[C@@]1(C)CCC#N = -12.1% (active)
O=Cc1c[nH]c2ccc(-c3csc4ccccc34)cc12 = 71.6% (inactive)
COc1cc(N=Nc2ccc(N)cc2)c(OC)cc1N=Nc1ccccc1.[Cl][Zn][Cl] = 102% (inactive)

Requested field: growth. Item: C#CCOc1nc(C)cc(C)c1C#N 111% (inactive)

Requested field: growth. Item: COc1cc(Cn2ncc3ccc(NC(=O)c4cc5ccccc5oc4=N)cc32)cc(OC)c1OC 55.1% (inactive)

Requested field: growth. Item: c1ccc2c(c1)nc(CN1CCOCC1)n1cc(N3CCCC3)nc21 103% (inactive)

----------
# Tested on: NCI-H23 lung
# Assay Overview: NCI-60 one-dose screen, 48 h (100 = growth as untreated, 0 = no growth, -100 = all killed)
# Assay Setup: 10 µM unless noted
About 83,000 compounds went through this panel and 20% of them were active in at least one assay; those are over-represented in the sample as a whole. The source made the active and inactive calls. The calls were made as follows: active = growth percent below 10; inactive = the rest.
Measurement Kind: growth

O=C1C=C[C@]2(C[C@@H](c3cccc(C(F)(F)F)c3)O[C@@H](c3cccc(C(F)(F)F)c3)O2)O1 = 50.1% (inactive)
CCCCCc1nc2c(c3c1CCCC3)CCCC2 = 73.4% (inactive)
O=C(Nc1ccccc1)Nc1cccc(Oc2nnc(Cl)c3ccccc23)c1 = 32.7% (inactive)
CCCCCCCCCCCCCCCCCC1=NCCN1CCOC1=C(Cl)C(=O)c2ccccc2C1=O = 79.4% (inactive)

Could you now consider this next compound?
Requested field: growth. Item: COC(=O)c1ccc(CSc2nnc(-c3c(C)nc4ccc(C)cn34)o2)cc1 85.9% (inactive)

----------
# Tested on: MDA-MB-231 breast
# Assay Overview: NCI-60 one-dose screen, 48 h (100 = growth as untreated, 0 = no growth, -100 = all killed)
# Assay Setup: 10 µM unless noted
Compounds without any hit were thinned out: in the full panel of roughly 83,000, 20% have a hit.
In this section, each of the compounds is paired with its reported growth.
Reply with just the number (in %).

Guide cases for growth, answers given:
C[n+]1cc2cc(C(N)=O)[nH]c3c(=N)c(Cl)c(N)c1c23 = 53.7
Cc1ccc(CCC(=O)Nc2ncc(Cc3cc(Cl)ccc3Cl)s2)o1 = 12.4

Could you now consider this next compound?
Requested field: growth. Item: N#Cc1c(-c2cccc(Cl)c2)cc(-c2cccc(Cl)c2)[nH]c1=O 90.5

----------
# System: NCI-H522 lung
# Assay Overview: NCI-60 one-dose screen, 48 h (100 = growth as untreated, 0 = no growth, -100 = all killed)
# Assay Setup: 10 µM unless noted
About 83,000 compounds went through this panel and 20% of them were active in at least one assay; those are over-represented in the sample as a whole.
Measurement Kind: growth (%)
Reply with just the number (in %).

Guide cases for growth, answers given:
COC(=O)c1c2c(c(C)[n+]([O-])c1C)C(=O)C(NCc1ccc(F)cc1)=CC2=O = -11.6
O=C(CCCCCCN1CC(=O)N2[C@@H](c3ccccc3Cl)c3[nH]c4ccccc4c3C[C@H]2C1=O)NO = 28.8
COc1ccc2occ(C3=C(c4c[nH]c5ccccc45)C(=O)N(O)C3=O)c2c1 = 58.1

Lab note: need growth with NCI-H522 lung for entry COc1cc(CCC[P+](c2ccccc2)(c2ccccc2)c2ccccc2)cc2c1OCO2 , please look it up. 13.2

Lab note: need growth with NCI-H522 lung for entry O=C(Nc1ccccc1)Nc1cccc(Oc2nnc(Cl)c3ccccc23)c1 , please look it up. 2

Lab note: need growth with NCI-H522 lung for entry Cc1ccc(-c2cc3c(cc2O)C2CCCCC2(N2CCOCC2)O3)cc1 (stereo unspecified) , please look it up. 82.7

----------
In this section, each of the compounds is paired with its reported growth.
# System: COLO 205 colon
# Assay Overview: NCI-60 one-dose screen, 48 h (100 = growth as untreated, 0 = no growth, -100 = all killed)
# Assay Setup: 10 µM unless noted
# Experimental: Cells are grown in 96 well plates and exposed to the test compound for 48 hours. Compounds are tested at a single concentration, which is 10^-5 M for most compounds. The reported endpoint is percent growth (GI% or GIPRCNT), where numbers from 0 - 100% represent growth inhibition, and numbers from -100% - 0 represent cell death. For example, a value of 40 represents 60% growth inhibition. A value of 0 means no net growth occurred over the course of the experiment. […]
Compounds without any hit were thinned out: in the full panel of roughly 83,000, 20% have a hit.
Reply with just the number (in %).

Guide cases for growth, answers given:
Cc1cc(C(=O)c2ccccc2)c(C)c2c1[nH]c1ccc(Cl)cc12 = -24.8
CCN1CCN(c2cc(C)nc(NCc3cc(Nc4ccnc5cc(Cl)ccc45)ccc3F)n2)CC1 = -86.2

Could you now consider this next compound?
Requested field: growth. Item: CCCCNC(=O)Oc1ccc2c(=O)c3sc4c(=O)c5ccccc5c(=O)c4c3c(=O)c2c1 -84.9
